Where these numbers come from: PubChem BioAssay (NCI)

Test system: OVCAR-4 ovarian
METHOD DESCRIPTION: NCI tumour cell line growth inhibition, 48 h
RECORDED METRIC: TGI

# MOLECULE, TGI
records = [
    ("CCCCCC(=O)c1ccc2[nH]c3c(C)cc([N+](=O)[O-])c(C)c3c2c1", "> 100 µM"),
    ("COc1ccc2cc1Oc1ccc(cc1)C(Sc1ccccc1)CCOC(=O)CC2 (stereo unspecified)", "> 100 µM"),
    ("CC(=O)OCC1OC(n2cc(F)c(=O)[nH]c2=O)C(N)C(OC(C)=O)C1OC(C)=O (stereo unspecified)", "> 100 µM"),
]

**Q:** Item CO/C1=C\C(C)=C\C(C)C(O)C(C)C/C(C)=C/C=C/C(OC)C(C(C)C(O)C(C)C2(O)CC(O)C(C)C(C(C)C)O2)OC1=O (stereo unspecified) has what recorded TGI?
**A:** 15.6 µM

**Q:** Look at this molecule and give its reported TGI. OCC1OC(n2ccc3c(NO)ncnc32)C(O)C1O (stereo unspecified)
**A:** 1.3 µM

**Q:** Name the recorded TGI for O=C1C=C(Br)C(=O)C12CCc1ccccc12 (stereo unspecified) .
**A:** 52.4 µM

**Q:** Tell me the measured TGI of NC(=Nc1ccc(O)cc1)S(=O)(=O)O , please.
**A:** > 100 µM

**Q:** Item under review: CC(=O)OC1CC2C(C)(C)C(=O)C=C[C@]2(C)C2CCC3(C)C(c4ccoc4)C(=O)[C@H]4O[C@]43[C@]12C (stereo partly specified) . Reported TGI?
**A:** > 100 µM

**Q:** Please report the recorded TGI for Cc1cc(O)c2c(c1O)C(=O)C13C(=C2O)C(=O)C2C(O)C1C1C(O)C3C(=O)C3=C(O)c4c(O)cc(C)c(O)c4C(=O)C321 (stereo unspecified) .
**A:** 7.24 µM

**Q:** Given the entry COc1cc(OC)c(OC)cc1/C=C\c1nccc2ccccc12 , report its measured TGI.
**A:** > 100 µM

**Q:** Which measured TGI value corresponds to O=C(c1ccc2ncc(-c3nc(NC4CC4)ncc3F)n2c1)N1CCOCC1 ?
**A:** 10.9 µM

**Q:** Find the recorded TGI belonging to O=c1[nH]nc(-c2ccccc2)n1/N=C/c1ccncc1 and report it.
**A:** > 100 µM

====

Test system: IGROV1 ovarian
METHOD DESCRIPTION: NCI tumour cell line growth inhibition, 48 h
RECORDED METRIC: TGI (µM)
Report the figure in µM without appending any unit label.

Illustrative cases are given below, each with its answer.
# COMPOUND, UNIT INFO, TGI
records = [
    ("COC1CC2C=C(C)/C=C/C=C/C(=O)NC(c3ccccc3)C/C=C/CCC(O)CC(=O)C2=C1O (stereo unspecified)", "µM", 1.84),
    ("O=C(c1ccc2ncc(-c3nc(NC4CC4)ncc3F)n2c1)N1CCOCC1", "µM", 12.2),
]

Note: attention shifts to another entry.
**Q:** Looking for the measured TGI of CCOC(=O)c1cc(C(=O)c2ccccc2)n2nc(-c3ccc(Cl)cc3)ccc12 , can you help?
**A:** 38.8

====

Tested on: TK-10 renal
// allowed return values: y = active, n = inactive

Previously resolved entries follow.
# MOLECULE, ASSIGNED LABEL
records = [
    ("COc1ccccc1NC(=O)n1nc(N)c2ccccc21", "n"),
    ("O=C(NCCCNc1cc(-c2cn(-c3ccccc3)nc2-c2cccc(O)c2)ccn1)c1ccccc1", "n"),
    ("OCC1OC(n2ccc3c(NO)ncnc32)C(O)C1O (configuration not stated)", "y"),
    ("COc1cc(/C=C2\\CC3C4CC=C5C[C@@H](OC(C)=O)CC[C@]5(C)C4CC[C@]3(C)C2=O)ccc1OCCCn1ccnc1 (some centres not stated)", "n"),
    ("COc1ccc2c(Nc3ccc(NS(C)(=O)=O)cc3)c3ccccc3nc2c1", "n"),
]

**Q:** Write down the call the test reported for this molecule. Item: O=c1nc(Nc2cccc(Cl)c2)oc2cc(Cl)oc(=O)c12
**A:** n

**Q:** Kindly provide the recorded test outcome for the following molecule: CCN1C(=S)N(CC)C2C1NC(=S)N2/N=C/C=C/c1ccccc1 (configuration not stated)
**A:** n

====

System: SK-MEL-5 melanoma
METHOD DESCRIPTION: NCI tumour cell line growth inhibition, 48 h
Quick list: TGI per entry.

# MOLECULE, TGI
data = [
    ("NC(=Nc1ccc(O)cc1)S(=O)(=O)O", "> 100 µM"),
    ("COc1ccccc1C1SCC(=O)N1c1ccc(-c2ccc(-n3c(-c4ccccc4)nc4ccccc4c3=O)cc2)cc1 (stereo not drawn)", "> 100 µM"),
    ("COc1ccc(-c2cc(/C=C3\\C(=O)Nc4ccc(Cl)cc43)[nH]n2)cc1", "23.6 µM"),
]

**Q:** Name the recorded TGI for Cc1cc(CNC(=O)OCc2ccccc2)c(C)c2c1Oc1ccccc1O2 .
**A:** > 100 µM

**Q:** Could you tell me which TGI is on file for O=C(Nc1cccc(C(F)(F)F)c1)O/N=C(/Cl)CCl ?
**A:** > 100 µM

**Q:** Bench note: what TGI did O=[N+]([O-])/C(C(Cl)=C(Cl)Cl)=C1\NCCO1 show?
**A:** > 100 µM

====

Items are presented alongside their recorded TGI.
Test system: HOP-62 NSCLC
METHOD DESCRIPTION: NCI tumour cell line growth inhibition, 48 h

Example entries and their recorded answers appear below.
# COMPOUND, REPORTED VALUE
measured = [
    ("Cn1ncc2c(N)nc(N3CCCCC3)nc21", "> 100 µM"),
    ("CCOC(=O)C(=Cc1ccccc1[N+](=O)[O-])C(=O)OCC", "12.9 µM"),
    ("C(CCC[Te][Te]CCCCCCOC1CCCCO1)CCOC1CCCCO1 (stereo unspecified)", "33.7 µM"),
]

**Q:** Hello, I am looking for reported TGI with HOP-62 NSCLC for CCOc1cc(NC(C)=O)ccc1C(=O)NN1C(=O)C(Oc2ccccc2)C1c1ccccc1 (stereo unspecified) . Could you help?
**A:** > 100 µM

====

System: MCF7 breast
METHOD DESCRIPTION: NCI tumour cell line growth inhibition, 48 h
In this section, each of the compounds is paired with its reported TGI.
Could you give me the number in µM? Just the number is fine.

# annotated cases, reported TGI shown
# COMPOUND, MEASURED ON, UNIT INFO, TGI
data = [
    ("C/C(=N/NC(=S)Nc1ccccc1Cl)c1cccc(/C(C)=N\\NC(=S)Nc2ccccc2Cl)n1", "MCF7 breast", "µM", 93.7),
    ("COC1CC2C=C(C)/C=C/C=C/C(=O)NC(c3ccccc3)C/C=C/CCC(O)CC(=O)C2=C1O (configuration not stated)", "MCF7 breast", "µM", 0.776),
    ("COC(=O)c1c2c(c(C)[n+]([O-])c1C)C(=O)C=C(NCc1ccc(F)c(F)c1)C2=O", "MCF7 breast", "µM", 0.891),
]

**Q:** Name the recorded TGI for Cc1ccc(OCC2OC(n3cnc4nc(Cl)nc(Cl)c43)CC2Oc2ccc(C)cc2)cc1 (configuration not stated) .
**A:** 20.6

**Q:** Which TGI value is on record for COc1ccc(N2C(=Nc3ccccc3)SC(=N/S(=O)(=O)c3ccccc3)/C2=N\S(=O)(=O)c2ccccc2)cc1 ?
**A:** 40.8

**Q:** Look up TGI: O=C(/C=C/c1ccsc1)c1ccco1
**A:** 6.32

**Q:** Return reported TGI; argument: FC(F)(F)c1ccccc1N1CCN(c2nc(-c3cccs3)nc3ccc(Br)cc23)CC1
**A:** 17.5

====

System: OVCAR-5 ovarian
METHOD DESCRIPTION: NCI tumour cell line growth inhibition, 48 h
# maps each entry to its TGI

**Q:** Can you look up the measured TGI of O=C(O)CCCCCOc1cccnc1/C=N/NC1=NCCN1 for me?
**A:** > 100 µM

**Q:** What TGI value was documented for this compound, CC(C)c1ccc(/C(C(=O)O)=C(\O)C(=O)O)cc1 ?
**A:** > 100 µM

**Q:** Sample CN(C)c1nc(NC23CC4CC(CC(C4)C2)C3)nc(N(C)C)n1 — what was its TGI?
**A:** > 100 µM

**Q:** # query: TGI of entry Cc1sc(C)c(Cc2c(C)sc(C)c2CCl)c1CCl
**A:** > 100 µM

**Q:** Which value of TGI has been reported for Cn1c(=O)c2c(nc3n(Cc4ccccc4)c(=O)c(NCCBr)cn23)n(C)c1=O in the records?
**A:** > 100 µM

**Q:** Quick one: TGI of N#Cc1c(SCc2ccccc2)nc(-c2ccccc2)[nH]c1=S ?
**A:** 53.6 µM

**Q:** Requested read-out: TGI. Entry: COCCOC(=O)NC(=O)Nc1ccc(/C(=N/O)c2ccc(Cl)cc2)cc1
**A:** 52.8 µM

**Q:** What value of TGI has been recorded for this entry: CCOC(=O)C(CO)c1nc2c([nH]c1=O)c(=O)n(C)c(=O)n2C (stereo unspecified)
**A:** > 100 µM

**Q:** Form field: reported TGI of COC(=O)C1=C(C)NC2(O)C=CC(=O)C3C(=O)N(c4ccccc4)C(=O)C132 (stereo unspecified)
**A:** > 100 µM

**Q:** Reported TGI for O=c1[nH]nc(-c2ccccc2)n1/N=C/c1c[nH]c2ccccc12 : what is it?
**A:** > 100 µM

**Q:** Recorded TGI for O=C1CSc2nc3ccccc3n2/C=N\N1 , please?
**A:** > 100 µM
